Reported AC50 values follow for various compounds
- Tgt: Cytochrome P450 2C19 (Homo sapiens)
- Sequence (P33261 whole entry): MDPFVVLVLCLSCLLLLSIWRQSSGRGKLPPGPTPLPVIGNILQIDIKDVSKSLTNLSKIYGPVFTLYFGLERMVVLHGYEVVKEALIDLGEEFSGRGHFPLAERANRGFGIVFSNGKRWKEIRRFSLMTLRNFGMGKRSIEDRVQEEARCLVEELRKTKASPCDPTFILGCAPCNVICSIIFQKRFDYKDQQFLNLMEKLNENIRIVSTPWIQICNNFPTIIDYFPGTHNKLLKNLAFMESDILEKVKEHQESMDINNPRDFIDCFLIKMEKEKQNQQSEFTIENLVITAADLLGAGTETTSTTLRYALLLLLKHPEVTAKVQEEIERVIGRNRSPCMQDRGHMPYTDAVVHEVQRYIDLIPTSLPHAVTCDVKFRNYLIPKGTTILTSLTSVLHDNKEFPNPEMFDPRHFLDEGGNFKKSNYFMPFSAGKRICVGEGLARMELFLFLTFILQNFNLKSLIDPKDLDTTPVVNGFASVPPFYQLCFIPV
- Protocol Notes: Cytochrome panel assay with activity outcomes. Panel member name: p450-cyp2c19 Compounds with AC50 equal or less than 10 uM are considered active
- Format: functional
- Test Conditions: read-out: AC50
Readout Label: AC50

Cn1cc(-c2nc3cncnc3n(-c3ccccc3)c2=O)c2ccccc21 : 39.8 µM (inconclusive)
COCc1c(C(=O)OCC(=O)N2c3ccccc3NC(=O)C2(C)C)oc2ccccc12 : 20 µM (inconclusive)
COc1ccc(NC(=O)OC(C)C)cc1 : 28.2 µM (inconclusive)
Cc1ccc(C)c(C(=O)CN2C3=NCCCN3c3ccccc32)c1 : 39.8 µM (inconclusive)
COC(=O)C(C)Sc1ccc2nnc(-c3ccc(F)cc3)n2n1 (stereo unspecified) : 39.8 µM (inconclusive)
O=C(O)/C=C/c1cn(-c2ncc(C(F)(F)F)cc2Cl)c2ccccc12 : 14.1 µM (inconclusive)
